- tested-system: UniProt P09917
- method-notes: Inhibition of calcium ionophore (A23187)-stimulated human 5-LO assessed as reduction of LTB4 production by measuring remaining activity at 100 uM preincubated for 15 mins followed by calcium ionophore (A23187) addition measured after 15 mins by LC-MS/MS analysis
For each record, write down the corresponding Activity.
Give bare numbers, in %.

Some molecules with recorded Activity:
INSERT INTO measurements (smiles_code, tested_system, quantity_measured, unit_string, val) VALUES
  ('CCCCN(Cc1ccccc1)S(=O)(=O)c1ccc(C(=O)O)cc1', 'UniProt P09917', 'Activity', '%', 124),
  ('O=C(O)c1ccc(S(=O)(=O)N(Cc2ccccc2)c2ccc(Oc3ccccc3)cc2)cc1', 'UniProt P09917', 'Activity', '%', 140),
  ('O=C(O)c1ccc(S(=O)(=O)N(Cc2ccccc2)Cc2ccc(Oc3ccccc3)cc2)cc1', 'UniProt P09917', 'Activity', '%', 90.8),
  ('COc1ccc(CN(Cc2ccccc2)S(=O)(=O)c2ccc(C(=O)O)cc2)cc1', 'UniProt P09917', 'Activity', '%', 110),
  ('COc1ccc(CN(CC2CCCCC2)S(=O)(=O)c2ccc(C(=O)O)cc2)cc1', 'UniProt P09917', 'Activity', '%', 60.4);

# batch: return Activity for each of the 2 molecules below
1. O=C(O)c1ccc(S(=O)(=O)N(Cc2ccccc2)Cc2ccc(Nc3ccccc3)cc2)cc1
2. O=C(O)c1ccc(S(=O)(=O)N(Cc2ccc(-c3ccccc3)cc2)CC2CCCCC2)cc1

1. 47
2. 75.7

###

- tested-system: UniProtKB Q9JM51
- Sequence (whole entry): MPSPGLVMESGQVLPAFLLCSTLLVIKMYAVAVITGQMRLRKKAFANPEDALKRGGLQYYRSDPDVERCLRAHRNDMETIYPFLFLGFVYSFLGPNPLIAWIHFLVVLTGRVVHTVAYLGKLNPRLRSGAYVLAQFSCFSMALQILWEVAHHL
- method-notes: Inhibition of mPGES-1 in Swiss mouse NIH/3T3 cells using PGH2 as substrate assessed as inhibition of IL-1beta/TNFalpha-stimulated PGE2 production at 5 uM preincubated for 30 mins followed by substrate addition measured after 1 min by LC-MS/MS analysis
- Format: cell-based
# cutoff 50% applies to inhibition; >= gives 1.0, < gives 0.0

# example entries with known answers
INSERT INTO measurements (smiles_code, class) VALUES
  ('O=C(O)c1ccc(S(=O)(=O)N(Cc2ccccc2)Cc2ccc(Nc3ccccc3)cc2)cc1', 1.0),
  ('O=C(O)c1ccc(S(=O)(=O)N(Cc2ccccc2)Cc2ccc(Oc3ccccc3)cc2)cc1', 1.0),
  ('COc1ccc(CN(Cc2ccccc2)S(=O)(=O)c2ccc(C(=O)O)cc2)cc1', 0.0),
  ('O=C(O)c1ccc(S(=O)(=O)N(Cc2ccc(-c3ccccc3)cc2)CC2CCCCC2)cc1', 1.0);

Continue with the next molecule.
Quick check, inhibition >= 50%? O=C(O)c1ccc(S(=O)(=O)N(Cc2ccccc2)c2ccc(Oc3ccccc3)cc2)cc1
1.0

###

- tested-system: Polyunsaturated fatty acid 5-lipoxygenase (Homo sapiens) (UniProt P09917)
- Sequence (P09917 whole entry): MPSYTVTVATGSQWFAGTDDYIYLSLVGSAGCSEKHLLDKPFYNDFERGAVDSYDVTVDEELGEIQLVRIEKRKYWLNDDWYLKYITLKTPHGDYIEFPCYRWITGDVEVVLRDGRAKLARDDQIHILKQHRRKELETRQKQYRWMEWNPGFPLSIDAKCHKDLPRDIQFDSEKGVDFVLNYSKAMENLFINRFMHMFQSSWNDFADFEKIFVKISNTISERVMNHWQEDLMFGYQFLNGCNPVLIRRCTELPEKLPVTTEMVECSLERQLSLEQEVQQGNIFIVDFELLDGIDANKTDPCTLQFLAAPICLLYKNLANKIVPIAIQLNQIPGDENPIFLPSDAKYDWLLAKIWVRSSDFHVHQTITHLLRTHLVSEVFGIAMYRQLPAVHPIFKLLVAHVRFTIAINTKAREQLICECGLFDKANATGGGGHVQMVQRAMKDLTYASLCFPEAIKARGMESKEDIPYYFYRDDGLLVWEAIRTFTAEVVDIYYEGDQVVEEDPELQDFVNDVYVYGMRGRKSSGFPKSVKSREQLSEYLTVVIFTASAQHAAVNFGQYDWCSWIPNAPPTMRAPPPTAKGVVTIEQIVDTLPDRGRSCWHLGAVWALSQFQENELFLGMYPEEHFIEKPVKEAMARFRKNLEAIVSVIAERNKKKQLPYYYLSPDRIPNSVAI
- method-notes: Inhibition of calcium ionophore (A23187)-stimulated human 5-LO assessed as reduction of 5(S)-HETE production by measuring remaining activity at 100 uM preincubated for 15 mins followed by calcium ionophore (A23187) addition measured after 15 mins by LC-MS/MS analysis
quantity-measured: Activity (%)
Answers are plain numbers, in %.

# batch: return Activity for each of the 7 compounds below
1. COc1ccc(CN(CC2CCCCC2)S(=O)(=O)c2ccc(C(=O)O)cc2)cc1
2. O=C(O)c1ccc(S(=O)(=O)N(Cc2ccccc2)c2ccc(Oc3ccccc3)cc2)cc1
3. O=C(O)c1ccc(S(=O)(=O)N(Cc2ccccc2)Cc2ccc(Oc3ccccc3)cc2)cc1
4. O=C(O)c1ccc(S(=O)(=O)N(Cc2ccc(-c3ccccc3)cc2)CC2CCCCC2)cc1
5. CCCCN(Cc1ccccc1)S(=O)(=O)c1ccc(C(=O)O)cc1
6. COc1ccc(CN(Cc2ccccc2)S(=O)(=O)c2ccc(C(=O)O)cc2)cc1
7. O=C(O)c1ccc(S(=O)(=O)N(Cc2ccccc2)Cc2ccc(Nc3ccccc3)cc2)cc1

1. 65.6
2. 125
3. 98.7
4. 75.9
5. 121
6. 120
7. 56.2

This collection of values is drawn from ChEMBL document CHEMBL3091291.
